Molecular target: Acetylcholinesterase (Electrophorus electricus) (UniProt O42275)
Sequence (O42275 24-633 limits assumed): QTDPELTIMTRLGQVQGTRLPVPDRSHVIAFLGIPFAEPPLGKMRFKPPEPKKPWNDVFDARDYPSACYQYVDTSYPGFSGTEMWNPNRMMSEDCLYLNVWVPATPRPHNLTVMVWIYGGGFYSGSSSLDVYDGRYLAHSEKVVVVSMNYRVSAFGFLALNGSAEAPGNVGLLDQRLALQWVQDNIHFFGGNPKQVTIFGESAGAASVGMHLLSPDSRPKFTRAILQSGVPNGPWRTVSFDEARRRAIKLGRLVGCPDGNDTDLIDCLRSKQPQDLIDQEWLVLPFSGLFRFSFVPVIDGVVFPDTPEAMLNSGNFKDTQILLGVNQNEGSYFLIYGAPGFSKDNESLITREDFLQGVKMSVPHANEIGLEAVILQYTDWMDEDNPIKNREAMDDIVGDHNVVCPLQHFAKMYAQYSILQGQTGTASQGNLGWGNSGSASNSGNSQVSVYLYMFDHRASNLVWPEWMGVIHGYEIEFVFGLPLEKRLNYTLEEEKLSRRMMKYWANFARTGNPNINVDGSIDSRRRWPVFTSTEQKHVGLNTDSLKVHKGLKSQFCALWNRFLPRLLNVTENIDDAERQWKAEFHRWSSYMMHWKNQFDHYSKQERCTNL
parameter: pKinc

smiles_entry=Cc1c(C)c2ccc(OCc3cc(F)cc(F)c3)cc2oc1=O parameter=pKinc observed_measurement=4.73
smiles_entry=Cc1c(C)c2ccc(OCc3ccccc3)cc2oc1=O parameter=pKinc observed_measurement=5.39
smiles_entry=COc1ccc2c(C)c(C)c(=O)oc2c1 parameter=pKinc observed_measurement=4.56
smiles_entry=Cc1c(C)c2ccc(OCCc3ccccc3)cc2oc1=O parameter=pKinc observed_measurement=4.8
smiles_entry=Cc1c(C)c2ccc(O)cc2oc1=O parameter=pKinc observed_measurement=4
smiles_entry=Cc1ccccc1COc1ccc2c(C)c(C)c(=O)oc2c1 parameter=pKinc observed_measurement=4.68
smiles_entry=Cc1c(C)c2ccc(OCc3ccc(F)c(F)c3)cc2oc1=O parameter=pKinc observed_measurement=5.06
smiles_entry=Cc1cc(=O)c2cc(OCc3ccccc3)ccc2o1 parameter=pKinc observed_measurement=4.53
smiles_entry=O=c1ccoc2ccc(OCc3ccccc3)cc12 parameter=pKinc observed_measurement=4.29
smiles_entry=Cc1c(C)c2ccc(OCc3cccc(O)c3)cc2oc1=O parameter=pKinc observed_measurement=4.83
smiles_entry=Cc1c(C)c2ccc(OCc3cccc(N)c3)cc2oc1=O parameter=pKinc observed_measurement=4.74
